- assay.info: Thermodynamic solubility
- Assay type: physicochemical
- recorded.conditions: PBS, pH 7.4, Thermodynamic solubility, PBS pH 7.4, CLND, each entry a single run
property.name: solubility thermodynamic
Value and unit, in that order.

molecule	measured
Cc1c(-c2ccc(-c3cccnc3Cl)cc2)nc2ccc(F)cc2c1C(=O)O [compound 41]	393 µg/mL
O=C(O)c1cc(-c2ccc(C3CCCCC3)cc2)nc2ccccc12 [compound 3]	14.5 µg/mL

solubility thermodynamic for Cc1c(-c2ccc(-c3ccccc3)cc2)nc2cnccc2c1C(=O)O [compound 46] ?
1050 µg/mL

So what's the measured solubility thermodynamic for this one? Cc1c(-c2ccc(-c3ccccc3F)cc2)nc2ccc(F)cc2c1C(=O)O [compound 1, brequinar]
407 µg/mL
